B1: SCARA5 (parent)
chain: VTEDLRLKDWEHSIALRNISLAKG

Variants of: B1
Experiment: protein stability index of a GFP-peptide fusion (GPS, HEK-293T) (PSI 1-6); higher = more stable;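 note: lentivirally expressed fusions sorted by FACS into six bins by GFP to DsRed ratio, PSI derived from sequencing read proportions per bin multiplied by bin number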
Details: c terminus: a fixed tail appended
readout type: protein stability index

[[record]]
variant_string = "L7R"
readout_type = "protein stability index"
readout_number = 2.81

[[record]]
variant_string = "L21M"
readout_type = "protein stability index"
readout_number = 3.68

[[record]]
variant_string = "L5D"
readout_type = "protein stability index"
readout_number = 4.14

[[record]]
variant_string = "A22C"
readout_type = "protein stability index"
readout_number = 3.37

[[record]]
variant_string = "L7E"
readout_type = "protein stability index"
readout_number = 4.21

[[record]]
variant_string = "S13N"
readout_type = "protein stability index"
readout_number = 2.93

[[record]]
variant_string = "T2H"
readout_type = "protein stability index"
readout_number = 3.52

[[record]]
variant_string = "K23V"
readout_type = "protein stability index"
readout_number = 2.29

[[record]]
variant_string = "L5V"
readout_type = "protein stability index"
readout_number = 3.65

[[record]]
variant_string = "A22L"
readout_type = "protein stability index"
readout_number = 2.67

[[record]]
variant_string = "I14F"
readout_type = "protein stability index"
readout_number = 3.21

[[record]]
variant_string = "K8G"
readout_type = "protein stability index"
readout_number = 3.18

[[record]]
variant_string = "S20C"
readout_type = "protein stability index"
readout_number = 3.21

[[record]]
variant_string = "E3D"
readout_type = "protein stability index"
readout_number = 3.68

[[record]]
variant_string = "S20T"
readout_type = "protein stability index"
readout_number = 2.86

[[record]]
variant_string = "R17P"
readout_type = "protein stability index"
readout_number = 3.56

[[record]]
variant_string = "A22Q"
readout_type = "protein stability index"
readout_number = 3.51

[[record]]
variant_string = "R6A"
readout_type = "protein stability index"
readout_number = 3.63

[[record]]
variant_string = "V1K"
readout_type = "protein stability index"
readout_number = 3.34

[[record]]
variant_string = "T2E"
readout_type = "protein stability index"
readout_number = 4.15

[[record]]
variant_string = "N18T"
readout_type = "protein stability index"
readout_number = 3.58

[[record]]
variant_string = "E11H"
readout_type = "protein stability index"
readout_number = 2.72

